# System: K-562 leukemia
# Measurement Notes: NCI-60 one-dose screen, 48 h
# Protocol Conditions: 10 µM unless noted
Compounds without any hit were thinned out: in the full panel of roughly 83,000, 20% have a hit. Activity calls are given as the source filed them. The calls were made as follows: active = growth percent below 10; inactive = the rest.
The categories you may choose from are active, inactive

Worked set:
Cn1c(=O)c2c(ncn2CC(=O)Nc2ccc(S(N)(=O)=O)cc2)n(C)c1=O :: inactive
N#CC1=C(N)Oc2c(c(N)nn2-c2ccccc2)C1c1ccc(Cl)cc1Cl (stereo not given) :: inactive
CN1CCN(CC#CCn2c3c(c4ccccc42)C[C@]2(C)[C@H]4CC[C@@H]5[C@H]6[C@H]7OC(=O)[C@@]6(CCC7(C)C)CC[C@@]5(C)[C@]4(C)CC[C@H]2C3(C)C)CC1 :: inactive
N=C(N)c1ccc(-c2ccc(-c3cc(F)cc(F)c3)o2)nc1 :: inactive
Cc1cc(Nc2ccc(F)cc2)nc(N2CCN(c3ccnc4cc(Cl)ccc34)CC2)n1 :: active
Cc1cc(N(CCNc2ccnc3cc(Cl)ccc23)Cc2ccco2)nc(Cl)n1 :: active
CCCCC(=O)OC1CCCCC1C (stereo not given) :: inactive
CN(C)c1cccc2[nH]c(-c3[nH]ncc3Nc3ccnc(N)n3)nc12 :: active
COc1ccc(C(=O)c2ccc(C)cc2)c(OC)c1OC :: inactive
Clc1ccccc1-c1nc(Nc2nc3ccccc3s2)nc(C(Cl)(Cl)Cl)n1 :: inactive

In this assay, the call recorded for Cn1cc(-c2nc(-c3c[nH]c4ncccc34)cs2)c2ccccc21 was what?
inactive

In this assay, the call recorded for CCN1CCN(C(=O)[C@]23CC[C@@H](C)[C@H](C)[C@H]2C2=CC[C@@H]4[C@@]5(C)C/C(=C/c6cccc(OC)c6OC)C(=O)C(C)(C)[C@@H]5CC[C@@]4(C)[C@]2(C)CC3)CC1 was what?
inactive

In this assay, the call recorded for Fc1ccc2c(c1)c(-c1nc(-c3c[nH]c4ncccc34)cs1)cn2CCCN1CCCCC1 was what?
active

In this assay, the call recorded for CCc1ccccc1NC(=O)c1sc2nc3c(cc2c1N)CCCC3 was what?
inactive

In this assay, the call recorded for CCN(CC)c1ccc(/C=C/c2cc(C)c3ccccc3n2)cc1 was what?
inactive

In this assay, the call recorded for COc1ccc(/C=C/C(=O)NCC(C)O)cc1 (stereo not given) was what?
inactive

In this assay, the call recorded for O=[N+]([O-])c1ccc(N/N=C(\C(=N/Nc2ccc([N+](=O)[O-])cc2[N+](=O)[O-])c2ccccc2)c2ccccc2)c([N+](=O)[O-])c1 was what?
inactive

In this assay, the call recorded for Cc1cccc(C)c1NC(=O)CSC(=S)N1CCN(CCOCCO)CC1 was what?
inactive

In this assay, the call recorded for Cc1ccc(-c2ccc(Nc3ccccc3)nn2)cc1S(N)(=O)=O was what?
inactive

In this assay, the call recorded for O=C(O)/C(=C/c1ccc(O)cc1)c1ccccc1 was what?
inactive

---

# System: SF-295 CNS
# Measurement Notes: NCI-60 one-dose screen, 48 h (100 = growth as untreated, 0 = no growth, -100 = all killed)
# Protocol Conditions: 10 µM unless noted
The panel holds about 83,000 compounds, 20% with a hit somewhere; the sample as a whole holds those more often.
Values of growth strictly less than 90% map to Fulfilled, and values of at least 90% map to Not fulfilled.

COc1cc(-c2cc3ncccc3c3nc(OCCN(C)C)c4cccnc4c23)cc(OC)c1OC :: Fulfilled
C=C(C)[C@@H]1CC[C@]2(C(=O)N3CCN(CC)CC3)CC[C@]3(C)[C@H](CC[C@@H]4[C@@](C)(CCC(=O)N5CCN(CC)CC5)[C@H](C(=C)C)CC[C@]43C)[C@@H]12 :: Fulfilled
COc1cc(NC(C)CN(CC(C)C)C(C)C)c2ncccc2c1 (stereo not drawn) :: Not fulfilled
Cc1ccc(N(CC(=O)Nc2ccc(S(=O)(=O)NC3CCN(C)CC3)cc2)S(=O)(=O)c2ccc(Cl)cc2)cc1 :: Not fulfilled
COc1ccc(/C=C/C(=O)NCC(C)O)cc1 (stereo not drawn) :: Not fulfilled
COc1ccccc1-n1cnc(N)c1C(=O)c1cc(OC)c(OC)c(OC)c1 :: Fulfilled
NCCNc1nc(-c2ccccc2)nc2nc(-c3ccccc3)oc12 :: Not fulfilled
C[C@@H](C(=O)O)c1ccc2c3cc(Cl)ccc3n(Cc3cc(=O)oc4ccc(Cl)cc34)c2c1 :: Not fulfilled

Does C=C(C)[C@@H]1CC[C@]2(C=O)CC[C@]3(C)[C@H](CC[C@@H]4[C@@]5(C)C/C(=C/c6cccnc6)C(=O)C(C)(C)[C@@H]5CC[C@]43C)[C@@H]12 have growth strictly under 90%?
Fulfilled

Does COC(=O)[C@]12CC[C@@H](C)[C@H](C)[C@@H]1C1=CC[C@@H]3[C@@](C)(CC#N)C4=C(C[C@@]3(C)[C@]1(C)CC2)OC[C@]4(C)C=O have growth strictly under 90%?
Fulfilled

Does COc1cc2c3c(c4c5ccccc5[nH]c4c2c(OC)c1OC)C(=O)N(O)C3=O have growth strictly under 90%?
Fulfilled

---

Listing of entries alongside the reported growth.
# System: MOLT-4 leukemia
# Measurement Notes: NCI-60 one-dose screen, 48 h (100 = growth as untreated, 0 = no growth, -100 = all killed)
# Protocol Conditions: 10 µM unless noted
This is part of a sample that, as a whole, favours compounds with a hit. Of some 83,000 tested, about 20% had one in any assay. Activity calls are given as the source filed them. Rule for the calls: active = growth percent below 10; inactive = the rest.

CCN1CCN(C(=O)[C@@]2(C)CC[C@]3(C)CC[C@]4(C)C(=CC(=O)[C@@H]5[C@@]6(C)CC[C@H](OCCC#N)C(C)(C)[C@@H]6CC[C@]54C)[C@@H]3C2)CC1 :: 62.8% (inactive)
Nc1nc(Br)nc2c1ncn2C1CC(O)C(CO)O1 (configuration not stated) :: 27.7% (inactive)
COc1cccc(-c2nn(-c3ccccc3)cc2-c2ccnc(NCCCNS(=O)(=O)c3ccc(C(F)(F)F)cc3)c2)c1 :: -0.667% (active)
CC(C)(C)c1ccc(OP(=S)(N/N=C/c2ccccc2O)Oc2ccc(C(C)(C)C)cc2)cc1 :: 43.7% (inactive)
COc1cnc2c(c1)C(=O)c1c-2n(CCCNC(C)C)c(=O)c2cc([N+](=O)[O-])ccc12 :: -15.6% (active)
C=C(C)[C@@H]1CC[C@]2(C(=O)NNC(=O)c3cccnc3)CC[C@]3(C)[C@H](CC[C@@H]4[C@@]5(C)CCCNC(C)(C)[C@@H]5CC[C@]43C)[C@@H]12 :: 40.1% (inactive)
COc1ccc2c3c(c4ccccc4cc13)C(=O)N(CCN(C)CCN)C2=O :: -32.5% (active)
CC(C)(C)c1ccc(OCCCCCCCN2CCNCC2)cc1 :: 0.604% (active)
COC(=O)C(Cc1ccccc1)n1cc(COc2nc(Cl)nc(Nc3ccc(Cl)cc3)n2)nn1 (configuration not stated) :: 91.3% (inactive)
O=C1c2cc3c(cc2-c2c1c1ccc(F)cc1c(=O)n2CCCN1CCOCC1)OCO3 :: 3.65% (active)

Please turn your attention to the following entry.
Entry COc1ccc(/C=C/C(=O)NCC(C)O)cc1 (configuration not stated) , growth reported as 109% (inactive)

---

# Test system: SF-295 CNS
# Measurement Notes: NCI-60 one-dose screen, 48 h (100 = growth as untreated, 0 = no growth, -100 = all killed)
# Protocol Conditions: 10 µM unless noted
The panel holds about 83,000 compounds, 20% with a hit somewhere; the sample as a whole holds those more often.
Parameter: growth (%)
Field: numeric (%). Do not append units.

Nc1nc(Br)nc2c1ncn2C1CC(O)C(CO)O1 (centres undefined) :: 94.3
Cc1cc(C)c(NC(=O)c2sc3nc4c(cc3c2N)CCCC4)c(C)c1 :: 29.2
Cc1c(C)c2c(c(C)c1NC(=O)CCCCCCC(=O)O)CCC(C)(CCCC(C)CCCC(C)CCCC(C)C)O2 (centres undefined) :: 71.4

Entry COC(=O)[C@]12CC[C@@H](C)[C@H](C)[C@@H]1C1=CC[C@@H]3[C@@]4(C)C[C@@H](O)[C@H](O)[C@@](C)(CO)C4=CC[C@@]3(C)[C@]1(C)CC2 , growth reported as -83.3

---

# Test system: NCI-H23 lung
# Measurement Notes: NCI-60 one-dose screen, 48 h (100 = growth as untreated, 0 = no growth, -100 = all killed)
# Protocol Conditions: 10 µM unless noted
This is part of a sample that, as a whole, favours compounds with a hit. Of some 83,000 tested, about 20% had one in any assay.
Entries are sorted into classes by growth as follows: 0 (below 50%), 1 (50% to below 90%), 2 (90% or more)

Worked set:
CN1CCN(c2nc(-c3csc(-c4cccs4)n3)cc3ccccc23)CC1 :: 1
O=C1C(=O)N(CCCCn2cc(-c3ccccc3)nn2)c2ccccc21 :: 2
Fc1ccc(Nc2ccc3c(OCCCN4CCOCC4)cccc3n2)cc1F :: 1
O=C(CCCCCn1c2ccccc2c2c3c(c4c5ccccc5[nH]c4c21)C(=O)N(O)C3=O)N1CCOCC1 :: 1
NS(=O)(=O)c1ccc(CCNC(=O)/C=C/c2ccc(Cl)cc2)cc1 :: 2
Nc1ccccc1NC(=O)c1ccc(CN2CCC/C(=C\c3ccccn3)C2=O)cc1 :: 0
O=C1CNCCN1 :: 2
O=C1CCN2C(=O)Nc3ccccc3C2C1 (stereo not drawn) :: 2

Which class is correct for the following compound? O=P(O)(c1ccccc1)c1ccccc1I
2

Which class is correct for the following compound? COc1ccc(-c2nc3c(c(C)nn3-c3ccc(F)cc3)c(=O)[nH]2)cc1
1

Which class is correct for the following compound? COc1cc(/C=N/NC(=S)NNC(=S)NC2CCCCC2)cc(OC)c1OC
2

Which class is correct for the following compound? C=C1C(=O)O[C@H]2[C@H]1CC/C(COC(=O)NCc1cc3ccccc3[nH]1)=C\CC[C@@]1(C)O[C@@H]21
0

Which class is correct for the following compound? CN1CCN(CCOc2ccc(-c3cnc4c(-c5cccc(F)c5)cnn4c3)cc2)CC1
1

Which class is correct for the following compound? COc1ccccc1CNc1nc(N)nc2[nH]c3ccc(O)cc3c12
1

Which class is correct for the following compound? O=c1c(CNc2ccc(S(=O)(=O)Nc3ncccn3)cc2)coc2ccccc12
2

The reported numbers originate from PubChem BioAssay (NCI).
